- System: B6C3F1 mice, Lewis lung carcinoma iv, survival T/C
- Procedure Details: NCI In Vivo Anticancer Drug Screen. Data for tumor model Lewis Lung Carcinoma (intravenous) in B6C3F1 mice
- Particulars: endpoint: median survival time; dose: 50.0 mg/kg/injection; schedule: Q01DX009 (ip); vehicle: DMSO; higher = longer survival
Toxic doses and inconclusive results are not listed.

>  <Compound>
O=C(O)[C@H](Cc1ccccc1)N1C(=O)c2ccccc2C1=O

>  <T/C>
98 % of control

$$$$
>  <Compound>
O=C(CN1CCOCC1)Nc1nc(-c2ccc(Cl)cc2)cs1

>  <T/C>
91 % of control

$$$$
>  <Compound>
O=C1c2ccccc2C(=O)c2c3c(cc(NCCNCCO)c21)N(CCO)CCN3

>  <T/C>
104 % of control

$$$$
>  <Compound>
O=C1NC(=O)NC(C(=O)O)N1

>  <T/C>
101 % of control

$$$$
>  <Compound>
CCOc1cc2c(cc1C(C)c1ccc(OC)cc1)OCO2 (stereo unspecified)

>  <T/C>
102 % of control

$$$$
>  <Compound>
CCCCNc1ccc2nnc(C)n2n1

>  <T/C>
100 % of control

$$$$

====

- System: B6C3F1 mice, Lewis lung carcinoma iv, survival T/C
- Procedure Details: NCI In Vivo Anticancer Drug Screen. Data for tumor model Lewis Lung Carcinoma (intravenous) in B6C3F1 mice
- Particulars: endpoint: median survival time; dose: 2.0 mg/kg/injection; schedule: Q01DX009 (ip); vehicle: saline; higher = longer survival
Inconclusive results and toxic doses are left out.
Entries and their T/C
Measured Attribute: T/C

>  <Compound>
Cc1c(N)nc([C@H](CC(N)=O)NC[C@H](N)C(N)=O)nc1C(=O)N[C@H](C(=O)N[C@H](C)[C@@H](O)CC(=O)N[C@H](C(=O)NC(O[C@@H]1O[C@@H](C)[C@@H](N)[C@@H](O)[C@H]1O)C(O)c1nc(-c2nc(C(=O)NCCCCN)cs2)cs1)[C@@H](C)O)[C@@H](O[C@@H]1O[C@@H](CO)[C@@H](O)[C@H](O)[C@@H]1O[C@H]1O[C@H](CO)[C@@H](O)[C@H](OC(N)=O)[C@@H]1O)c1c[nH]cn1 (stereo partly drawn)

>  <Endpoint Result>
123 % of control

$$$$
>  <Compound>
OC(C1CO1)C(O)C1CO1 (stereo not drawn)

>  <Endpoint Result>
109 % of control

$$$$
>  <Compound>
O=C1C(NCC(O)CO)=C(N2CC2)C(=O)C(NCC(O)CO)=C1N1CC1 (stereo not drawn)

>  <Endpoint Result>
108 % of control

$$$$
>  <Compound>
COc1cccc2c1C(=N)c1c(O)c3c(c(O)c1C2=O)C[C@@](O)(C(C)=O)C[C@@H]3OC1CC(N)C(O)C(C)O1 (stereo partly drawn)

>  <Endpoint Result>
96 % of control

$$$$
>  <Compound>
CCCCNCCCNCCCNC(=O)c1csc(-c2csc(CCNC(=O)C(NC(=O)C(C)C(O)C(C)NC(=O)C(NC(=O)c3nc(C(CC(N)=O)NCC(N)C(N)=O)nc(N)c3C)C(OC3OC(CO)C(O)C(O)C3OC3OC(CO)C(O)C(OC(N)=O)C3O)c3cnc[nH]3)C(C)O)n2)n1 (stereo not drawn)

>  <Endpoint Result>
112 % of control

$$$$
>  <Compound>
Cc1c(N)nc(C(CC(N)=O)NCC(N)C(N)=O)nc1C(=O)NC(C(=O)NC(C)C(O)CC(=O)NC(C(=O)NC(OC1OC(C)C(N)C(O)C1O)C(O)c1nc(-c2nc(C(=O)NCCCC(N)CC(=O)NCCCNCCCCN)cs2)cs1)C(C)O)C(OC1OC(CO)C(O)C(O)C1OC1OC(CO)C(O)C(OC(N)=O)C1O)c1cnc[nH]1 (stereo not drawn)

>  <Endpoint Result>
123 % of control

$$$$
>  <Compound>
Nc1ccn(C2OC(CO)C(O)C2O)c(=O)n1 (stereo not drawn)

>  <Endpoint Result>
97 % of control

$$$$
>  <Compound>
O=NN(CCCl)C(=O)NC1OC(CO)C(O)C(O)C1O (stereo not drawn)

>  <Endpoint Result>
121 % of control

$$$$
>  <Compound>
Nc1nc(=S)c2[nH]cnc2[nH]1

>  <Endpoint Result>
114 % of control

$$$$
>  <Compound>
Cc1c(N)nc(C(CC(N)=O)NCC(N)C(N)=O)nc1C(=O)NC(C(=O)NC(C)C(O)C(C)C(=O)NC(C(=O)NCCc1nc(-c2nc(C(=O)NCCCNCCCc3ccccn3)cs2)cs1)C(C)O)C(OC1OC(CO)C(O)C(O)C1OC1OC(CO)C(O)C(OC(N)=O)C1O)c1cnc[nH]1 (stereo not drawn)

>  <Endpoint Result>
113 % of control

$$$$
>  <Compound>
CCCCCCCC(=O)OCC(=O)[C@]1(O)Cc2c(O)c3c(c(O)c2[C@@H](OC2CC(N)C(O)C(C)O2)C1)C(=O)c1c(OC)cccc1C3=O (stereo partly drawn)

>  <Endpoint Result>
124 % of control

$$$$
>  <Compound>
COc1cc2c(c(OC)c1OC)-c1ccc(OC)c(=O)cc1[C@@H](NC(C)=O)CC2

>  <Endpoint Result>
112 % of control

$$$$
>  <Compound>
N[C@@H](Cc1ccc(N(CCCl)CCCl)cc1)C(=O)O

>  <Endpoint Result>
99 % of control

$$$$

====

- Tested on: B6C3F1 mice, Lewis lung carcinoma iv, survival T/C
- Procedure Details: NCI In Vivo Anticancer Drug Screen. Data for tumor model Lewis Lung Carcinoma (intravenous) in B6C3F1 mice
- Particulars: endpoint: median survival time; dose: 6.25 mg/kg/injection; schedule: Q01DX009 (ip); vehicle: distilled water + Tween-80; higher = longer survival
Inconclusive results and toxic doses are left out.
Catalogue of T/C values
Measured Attribute: T/C

>  <Molecule>
CC(C)N1CC(COc2cccc3ccccc23)OP1(=O)N(CCCl)CCCl (stereo not given)

>  <Measured Attribute>
T/C

>  <Endpoint Result>
101 % of control

$$$$
>  <Molecule>
CCOC(=O)c1ccc(NN=NCCF)cc1

>  <Measured Attribute>
T/C

>  <Endpoint Result>
113 % of control

$$$$
>  <Molecule>
COc1ccc2c(c1)CCn1c(C)c(COC(=O)NC(C)C)c(COC(=O)NC(C)C)c1-2

>  <Measured Attribute>
T/C

>  <Endpoint Result>
99 % of control

$$$$
>  <Molecule>
C#CCNC1=C(C)C(=O)C2=C(C1=O)[C@H](COC(N)=O)[C@]1(OC)[C@@H]3N[C@@H]3CN21

>  <Measured Attribute>
T/C

>  <Endpoint Result>
102 % of control

$$$$
>  <Molecule>
CCCCCCCCCCCC(=O)NC1CC(O[C@H]2C[C@](O)(C(=O)CO)Cc3c(O)c4c(c(O)c32)C(=O)c2c(OC)cccc2C4=O)OC(C)C1O (stereo not given in full)

>  <Measured Attribute>
T/C

>  <Endpoint Result>
96 % of control

$$$$

====

Here the recorded T/C is given for each entry.
- System: B6C3F1 mice, Lewis lung carcinoma iv, survival T/C
- Procedure Details: NCI In Vivo Anticancer Drug Screen. Data for tumor model Lewis Lung Carcinoma (intravenous) in B6C3F1 mice
- Particulars: endpoint: median survival time; dose: 800.0 mg/kg/injection; schedule: Q01DX009 (ip); vehicle: saline; higher = longer survival
- Description: The antitumor activity of compounds was measured in mice bearing transplantable tumors. Survival or tumor size were measured and the results are expressed as the measurement made in the treated group (T) divided by the measurement made in the vehicle treated control group (C). The tumor model used in this assay is Lewis Lung Carcinoma (intravenous) in B6C3F1 mice
Toxic doses and inconclusive results are not listed.
Measured Attribute: T/C

>  <Compound>
COC(=O)C(N)Cc1ccc(O)c(O)c1 (configuration not stated)

>  <Endpoint Result>
95 % of control

$$$$
>  <Compound>
N#C[C@H](OC1OC(COC2OC(CO)C(O)C(O)C2O)C(O)C(O)C1O)c1ccccc1 (some centres not stated)

>  <Endpoint Result>
101 % of control

$$$$
>  <Compound>
O=C(O)CP(=O)(O)O

>  <Endpoint Result>
94 % of control

$$$$
>  <Compound>
O=C(O)C1CC(O)CN1 (configuration not stated)

>  <Endpoint Result>
109 % of control

$$$$
>  <Compound>
Nc1n[nH]c(N)n1

>  <Endpoint Result>
115 % of control

$$$$
>  <Compound>
OCCCN1CCCCC1CO (configuration not stated)

>  <Endpoint Result>
97 % of control

$$$$
>  <Compound>
CCCCCC[C@@H](O)C/C=C\CCCCCCCC(=O)OCCO

>  <Endpoint Result>
100 % of control

$$$$

====

- System: B6C3F1 mice, Lewis lung carcinoma iv, survival T/C
- Procedure Details: NCI In Vivo Anticancer Drug Screen. Data for tumor model Lewis Lung Carcinoma (intravenous) in B6C3F1 mice
- Particulars: endpoint: median survival time; dose: 200.0 mg/kg/injection; schedule: Q01DX009 (ip); vehicle: saline with Tween-80; higher = longer survival
Toxic doses and inconclusive results are not listed.
Listed compounds paired with reported T/C

>  <Compound>
Cc1ccc(N)c(N)c1

>  <Assayed Target>
B6C3F1 mice, Lewis lung carcinoma iv, survival T/C

>  <T/C>
103 % of control

$$$$
>  <Compound>
C=C(C)C(=NC(C)(C)C)Nc1ccccc1

>  <Assayed Target>
B6C3F1 mice, Lewis lung carcinoma iv, survival T/C

>  <T/C>
90 % of control

$$$$
>  <Compound>
COC1/C=C/O[C@@]2(C)Oc3c(C)c(O)c4c(O)c(cc(O)c4c3C2=O)NC(=O)/C(C)=C\C=C\[C@H](C)C(O)[C@@H](C)[C@@H](O)[C@@H](C)[C@H](OC(C)=O)[C@@H]1C (stereo not given in full)

>  <Assayed Target>
B6C3F1 mice, Lewis lung carcinoma iv, survival T/C

>  <T/C>
101 % of control

$$$$
>  <Compound>
c1ccc2sc(SSN3CC4CCC(CC4)C3)nc2c1

>  <Assayed Target>
B6C3F1 mice, Lewis lung carcinoma iv, survival T/C

>  <T/C>
106 % of control

$$$$
>  <Compound>
CCCCOCN(COCCCC)C12CC3CC(CC(C3)C1)C2

>  <Assayed Target>
B6C3F1 mice, Lewis lung carcinoma iv, survival T/C

>  <T/C>
100 % of control

$$$$
>  <Compound>
COc1cccc(C2NC(=O)c3c(n[nH]c3N)S2)c1O (stereo not given)

>  <Assayed Target>
B6C3F1 mice, Lewis lung carcinoma iv, survival T/C

>  <T/C>
109 % of control

$$$$
>  <Compound>
CCOC(=O)c1cn(C)c2c1C(O)=C(C(=O)OC)CC(=O)N2

>  <Assayed Target>
B6C3F1 mice, Lewis lung carcinoma iv, survival T/C

>  <T/C>
99 % of control

$$$$
>  <Compound>
O=C(Nc1ccccc1C(=O)O)c1cc([N+](=O)[O-])cc([N+](=O)[O-])c1

>  <Assayed Target>
B6C3F1 mice, Lewis lung carcinoma iv, survival T/C

>  <T/C>
95 % of control

$$$$
>  <Compound>
C1OCN2CSCC12 (stereo not given)

>  <Assayed Target>
B6C3F1 mice, Lewis lung carcinoma iv, survival T/C

>  <T/C>
96 % of control

$$$$
>  <Compound>
CN(C)P(=O)(Oc1ccccc1)N(C)C

>  <Assayed Target>
B6C3F1 mice, Lewis lung carcinoma iv, survival T/C

>  <T/C>
101 % of control

$$$$
>  <Compound>
C=COC(=O)C(Cc1ccccc1)NC(=O)OCc1ccccc1 (stereo not given)

>  <Assayed Target>
B6C3F1 mice, Lewis lung carcinoma iv, survival T/C

>  <T/C>
105 % of control

$$$$
>  <Compound>
O=C(O)C1Cc2nc[nH]c2CN1CO (stereo not given)

>  <Assayed Target>
B6C3F1 mice, Lewis lung carcinoma iv, survival T/C

>  <T/C>
103 % of control

$$$$
>  <Compound>
CCOC(=O)C1(c2ccccc2)C(=O)Oc2ccccc21 (stereo not given)

>  <Assayed Target>
B6C3F1 mice, Lewis lung carcinoma iv, survival T/C

>  <T/C>
99 % of control

$$$$
>  <Compound>
N#CCCSC(=S)C1CCCC1=N (stereo not given)

>  <Assayed Target>
B6C3F1 mice, Lewis lung carcinoma iv, survival T/C

>  <T/C>
105 % of control

$$$$
>  <Compound>
O=C1NC(=O)C2C3C=CC(C12)C1C2C(=O)NC(=O)C2C31 (stereo not given)

>  <Assayed Target>
B6C3F1 mice, Lewis lung carcinoma iv, survival T/C

>  <T/C>
91 % of control

$$$$
>  <Compound>
O=CC=O

>  <Assayed Target>
B6C3F1 mice, Lewis lung carcinoma iv, survival T/C

>  <T/C>
101 % of control

$$$$
>  <Compound>
COc1c(C)c2c(c(O)c1C/C=C(\C)CCC(=O)O)C(=O)OC2

>  <Assayed Target>
B6C3F1 mice, Lewis lung carcinoma iv, survival T/C

>  <T/C>
98 % of control

$$$$
>  <Compound>
BrC[P+](CBr)(CBr)CBr

>  <Assayed Target>
B6C3F1 mice, Lewis lung carcinoma iv, survival T/C

>  <T/C>
89 % of control

$$$$
>  <Compound>
COCCCNC1=C(C#N)C(=O)NC(c2cccc([N+](=O)[O-])c2)S1 (stereo not given)

>  <Assayed Target>
B6C3F1 mice, Lewis lung carcinoma iv, survival T/C

>  <T/C>
93 % of control

$$$$
>  <Compound>
O=C(c1cccnc1)c1cc(-c2ccccn2)c(=O)n2ccccc12

>  <Assayed Target>
B6C3F1 mice, Lewis lung carcinoma iv, survival T/C

>  <T/C>
105 % of control

$$$$
>  <Compound>
CC(Cc1ccc(O)c(O)c1)C(C)Cc1ccc(O)c(O)c1 (stereo not given)

>  <Assayed Target>
B6C3F1 mice, Lewis lung carcinoma iv, survival T/C

>  <T/C>
104 % of control

$$$$
>  <Compound>
CCCCCC#CC1OC12CCCCC2 (stereo not given)

>  <Assayed Target>
B6C3F1 mice, Lewis lung carcinoma iv, survival T/C

>  <T/C>
88 % of control

$$$$
>  <Compound>
COc1cc(C(=O)N/N=C/c2cccc([N+](=O)[O-])c2)cc(OC)c1OC

>  <Assayed Target>
B6C3F1 mice, Lewis lung carcinoma iv, survival T/C

>  <T/C>
93 % of control

$$$$
>  <Compound>
CC(=O)Oc1[nH]c(=O)c2cccc3c2c1CCC3

>  <Assayed Target>
B6C3F1 mice, Lewis lung carcinoma iv, survival T/C

>  <T/C>
107 % of control

$$$$
>  <Compound>
O=C1SC(c2ccccc2)=S=C1c1ccccc1

>  <Assayed Target>
B6C3F1 mice, Lewis lung carcinoma iv, survival T/C

>  <T/C>
104 % of control

$$$$
